test system: A2058 melanoma cells; experiment: Mitotic arrest (microtubule binding) in A2058 melanoma cells, high-content microscopy; assay type: cell-based; conditions: Homo sapiens, inhibitors 1 - 0.008 µM for 24 hours, percentage of cells with condensed DNA, mean value of at least four experiments, read-out: Half-maximal effective concentrations (EC50), Condensed DNA
reported metric: EC50

smiles_record=C[C@@H]1COCCN1c1nc(-c2cnc(N)cc2C(F)(F)F)cc(N2CC(F)(F)C2)n1 reported_metric=EC50 test_value="111 nM"
smiles_record=Nc1cc(C(F)(F)F)c(-c2cc(N3CC(F)C3)nc(N3CCOCC3)n2)cn1 reported_metric=EC50 test_value="71 nM"
smiles_record=Nc1ncc(-c2cc(N3CC(F)(F)C3)nc(N3CCOCC3)n2)c(C(F)(F)F)n1 reported_metric=EC50 test_value="70 nM"
smiles_record=CC1CN(c2cc(-c3cnc(N)cc3C(F)(F)F)nc(N3CCOCC3)n2)C1 reported_metric=EC50 test_value="92 nM"
smiles_record=Nc1cc(C(F)(F)F)c(-c2cc(N3CC(F)(F)C3)nc(N3CCOCC3)n2)cn1 reported_metric=EC50 test_value="65 nM"
smiles_record=Nc1cc(C(F)(F)F)c(-c2cc(N3CC(F)(F)C3)nc(N3CCC(=O)CC3)n2)cn1 reported_metric=EC50 test_value="129 nM"
smiles_record=Nc1cc(C(F)(F)F)c(-c2cc(N3CC(F)(F)C3)nc(N3CCC(O)CC3)n2)cn1 reported_metric=EC50 test_value="128 nM"
smiles_record=Nc1cc(C(F)(F)F)c(-c2cc(N3CCC3)nc(N3CCOCC3)n2)cn1 reported_metric=EC50 test_value="79 nM"
